# SYSTEM: indoleamine 2, 3-dioxygenase (IDO1) (Homo sapiens)
# Sequence (P14902 whole entry): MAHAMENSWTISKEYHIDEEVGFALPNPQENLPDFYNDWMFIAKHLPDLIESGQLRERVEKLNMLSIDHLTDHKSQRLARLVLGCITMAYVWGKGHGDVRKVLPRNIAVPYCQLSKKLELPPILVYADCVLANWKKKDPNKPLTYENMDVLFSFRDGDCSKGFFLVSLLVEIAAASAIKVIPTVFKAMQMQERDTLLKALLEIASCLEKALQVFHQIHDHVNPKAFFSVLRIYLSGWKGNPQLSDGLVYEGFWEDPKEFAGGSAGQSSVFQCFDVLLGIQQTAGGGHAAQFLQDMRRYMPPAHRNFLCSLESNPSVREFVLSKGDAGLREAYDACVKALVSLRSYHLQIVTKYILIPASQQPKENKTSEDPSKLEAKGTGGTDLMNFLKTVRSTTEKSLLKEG
# TEST: PBMC IDOi assay (kynurenine detection by mass spectrometry)
# Format: cell-based
# CONDITION: IFN-γ and LPS stimulated human PBMC, 2 days
pEC50: −log10 of the molar value.
Label MET for high-side pEC50 (at or above 9) and NOT MET for low-side pEC50 (below it).

COMPOUND	SYSTEM	GROUP
CC(C)CN(c1ccc(C(C)CC(=O)O)cc1Nc1nnc(C(F)(F)F)s1)C1CCCCC1 (centres unmarked) [Example 29]	indoleamine 2, 3-dioxygenase (IDO1) (Homo sapiens)	MET
COc1nccc(Nc2cc(C(C)CC(=O)O)ccc2N(CC(C)C)CC(C)C)n1 (centres unmarked) [Example 12]	indoleamine 2, 3-dioxygenase (IDO1) (Homo sapiens)	NOT MET
CC(C)CN(CC(C)C)c1ccc([C@@H](C)CC(=O)O)cc1Nc1nc(Cl)ns1 [Example 41]	indoleamine 2, 3-dioxygenase (IDO1) (Homo sapiens)	NOT MET
CC(C)CN(CC(C)C)c1ccc(C(C)CC(=O)O)cc1Nc1nnc(C2CC2)[nH]1 (centres unmarked) [Example 48]	indoleamine 2, 3-dioxygenase (IDO1) (Homo sapiens)	NOT MET
CC(C)CN(CC(C)C)c1ccc(C(C)CC(=O)O)cc1Nc1nc(C(F)(F)F)ns1 (centres unmarked) [Example 34]	indoleamine 2, 3-dioxygenase (IDO1) (Homo sapiens)	NOT MET
CC(C)CN(c1ccc([C@H](C)CC(=O)O)cc1Nc1nnc(C2CC2)[nH]1)C1CCCCC1 [Example 50]	indoleamine 2, 3-dioxygenase (IDO1) (Homo sapiens)	NOT MET

Values compiled from patent US10472336B2.
